pIC50: −log10 of the molar value.
Listed below are molecules with pIC50 for MAPKAPK2 (Homo sapiens, UniProt P49137), each taken from published literature.

Look over these answered cases.
[
  {
    "Molecule": "OCc1cccc(-c2ccnc3[nH]cc(Sc4ccccn4)c23)c1",
    "Experimental value": "≥ 5.00"
  },
  {
    "Molecule": "CCN1CC2(C1)c1[nH]c3c(c1C(=O)NC21CC1)CCc1cnc(-c2ccc(OC(C)C)nc2)cc1-3",
    "Experimental value": "> 8.52"
  }
]

// assay MAPKAPK2 (Homo sapiens, UniProt P49137), entry O=C(NCc1ccccc1)c1cccc(-c2cc3c(cn2)CCc2c-3[nH]c3c2C(=O)NC2(CC2)C3)c1 , pIC50 value = 7.96

// assay MAPKAPK2 (Homo sapiens, UniProt P49137), entry Nc1ncnc2c1c(-c1cccc(OCC3CCCO3)c1F)cn2[C@H]1C[C@@H](CN2CCS(=O)(=O)CC2)C1 (mixture of isomers) , pIC50 value = < 5.00

// assay MAPKAPK2 (Homo sapiens, UniProt P49137), entry COc1ccc(CNC(=O)c2cccc(-c3cc4c(cn3)CCc3c-4[nH]c4c3C(=O)NC3(CC3)C4)c2)cn1 , pIC50 value = 7.80

// assay MAPKAPK2 (Homo sapiens, UniProt P49137), entry CN(C)C[C@H]1CN(c2ccc3c(c2)Cn2cc(-c4ccc(F)cc4)cc2-c2nccn2-3)C[C@H]1F , pIC50 value = > 7.30

// assay MAPKAPK2 (Homo sapiens, UniProt P49137), entry CNCC1CCN(c2ccc3c(c2)Cn2cc(-c4ccc(F)cc4)cc2-c2nccn2-3)C1 (stereo not shown) , pIC50 value = > 7.30

====

Listed below are molecules with pIC50 for MAPKAPK2 (Homo sapiens, UniProt P49137), each taken from published literature.
pIC50: −log10 of the molar value.

Look over these answered cases.
[
  {
    "Entry smiles": "CN(C)C[C@@H]1CN(c2ccc3c(c2)Cn2cc(-c4ccc(C#N)cc4)cc2-c2nncn2-3)C[C@@H]1O",
    "Readout name": "pIC50",
    "Experimental value": "> 7.30"
  },
  {
    "Entry smiles": "CC(C)Oc1ccc(-c2cc3c(cn2)CCc2c-3[nH]c3c2C(=O)NC2(CC2)C32CN(C)C2)cn1",
    "Readout name": "pIC50",
    "Experimental value": "> 8.52"
  },
  {
    "Entry smiles": "N[C@@H]1CCCN(c2ccc3c(c2)Cn2cc(-c4ccc(F)cc4)cc2-c2nnnn2-3)C1",
    "Readout name": "pIC50",
    "Experimental value": "> 7.30"
  },
  {
    "Entry smiles": "C[C@H](CO)NC[C@H]1CCN(c2ccc3c(c2)Cn2cc(-c4ccc(C#N)cc4)cc2-c2nncn2-3)C1",
    "Readout name": "pIC50",
    "Experimental value": "> 7.30"
  },
  {
    "Entry smiles": "CC(C)Oc1ccc(-c2cc3c(cn2)CCc2c4c(n(C)c2-3)C2(CNC4=O)CN(C)C2)cn1",
    "Readout name": "pIC50",
    "Experimental value": 8.05
  }
]

// assay MAPKAPK2 (Homo sapiens, UniProt P49137), entry CN1CC2(CCN(c3cc4c(cn3)-n3ccnc3-c3cc(-c5ccc(C#N)cc5)cn3C4)C2)C1 , pIC50 value = 6.70 to 7.00

// assay MAPKAPK2 (Homo sapiens, UniProt P49137), entry O=C(O)c1ccc(Sc2c[nH]c3ncccc23)nc1 , pIC50 value = ≥ 5.00

====

Listed below are molecules with IC50 for MAPKAPK2 (Homo sapiens), each taken from published literature.

Look over these answered cases.
[
  {
    "Molecule": "N#Cc1ccc(-c2cc3n(c2)Cc2cc(N4CC[C@H]5NCC[C@@H]54)ncc2-n2cnnc2-3)cc1 (racemic)",
    "Readout name": "IC50",
    "Experimental value": "< 50 nM"
  },
  {
    "Molecule": "CNC[C@H]1CN(c2ccc3c(c2)Cn2cc(-c4ccc(F)cc4)cc2-c2ncnn2-3)C[C@H]1F",
    "Readout name": "IC50",
    "Experimental value": "< 50 nM"
  },
  {
    "Molecule": "CC(=O)Nc1ccc(C(=O)Nc2sc(Nc3ccccc3)nc2C(N)=O)cc1",
    "Readout name": "IC50",
    "Experimental value": "> 300 nM"
  }
]

# context switch: different molecule, same IC50
// assay MAPKAPK2 (Homo sapiens), entry CCN1CC2(C1)c1[nH]c3c(c1C(=O)NC21CC1)CCc1cnc(-c2ccccc2F)cc1-3 , IC50 value = 15 nM
